SYSTEM TESTED: Histone deacetylase 8 (Homo sapiens)
Sequence (Q9BY41 whole entry): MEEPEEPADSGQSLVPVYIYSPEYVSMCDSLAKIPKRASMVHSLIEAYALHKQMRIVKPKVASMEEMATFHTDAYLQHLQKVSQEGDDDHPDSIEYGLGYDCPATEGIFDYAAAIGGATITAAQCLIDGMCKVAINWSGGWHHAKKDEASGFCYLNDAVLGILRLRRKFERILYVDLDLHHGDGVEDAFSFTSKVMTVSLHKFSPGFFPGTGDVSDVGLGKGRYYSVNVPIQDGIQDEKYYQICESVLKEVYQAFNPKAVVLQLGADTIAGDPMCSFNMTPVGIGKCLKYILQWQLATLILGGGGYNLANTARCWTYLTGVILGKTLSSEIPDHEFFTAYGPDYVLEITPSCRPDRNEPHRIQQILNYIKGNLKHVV
READOUT LABEL: IC50 (µM)

// query # value lookup — system Histone deacetylase 8 (Homo sapiens), readout IC50, item CC(C)(C)OC(=O)Nc1ccc(-c2cc(C(=O)NCCCCC(=O)NO)no2)cc1
// result 3.65

// query Request: CC(C)(C)OC(=O)Nc1cccc(-c2cc(C(=O)NCCCCC(=O)NO)no2)c1
// result 5.81

[1] CC(C)(C)OC(=O)Nc1cccc(-c2cc(C(=O)NCCCCCCC(=O)NO)no2)c1
[2] O=C(CCCCOCc1cc(-c2ccccc2)on1)NO
// query Pick one: 1 or 2 . Which has the bigger IC50 number? Let me know the label of the one you choose.
// result 1

* * *

pIC50: −log10 of the molar value.
The reader will find pIC50 measurements below, all made with Polyamine deacetylase HDAC10 (Homo sapiens, UniProt Q969S8).
Sequence (Q969S8 whole entry): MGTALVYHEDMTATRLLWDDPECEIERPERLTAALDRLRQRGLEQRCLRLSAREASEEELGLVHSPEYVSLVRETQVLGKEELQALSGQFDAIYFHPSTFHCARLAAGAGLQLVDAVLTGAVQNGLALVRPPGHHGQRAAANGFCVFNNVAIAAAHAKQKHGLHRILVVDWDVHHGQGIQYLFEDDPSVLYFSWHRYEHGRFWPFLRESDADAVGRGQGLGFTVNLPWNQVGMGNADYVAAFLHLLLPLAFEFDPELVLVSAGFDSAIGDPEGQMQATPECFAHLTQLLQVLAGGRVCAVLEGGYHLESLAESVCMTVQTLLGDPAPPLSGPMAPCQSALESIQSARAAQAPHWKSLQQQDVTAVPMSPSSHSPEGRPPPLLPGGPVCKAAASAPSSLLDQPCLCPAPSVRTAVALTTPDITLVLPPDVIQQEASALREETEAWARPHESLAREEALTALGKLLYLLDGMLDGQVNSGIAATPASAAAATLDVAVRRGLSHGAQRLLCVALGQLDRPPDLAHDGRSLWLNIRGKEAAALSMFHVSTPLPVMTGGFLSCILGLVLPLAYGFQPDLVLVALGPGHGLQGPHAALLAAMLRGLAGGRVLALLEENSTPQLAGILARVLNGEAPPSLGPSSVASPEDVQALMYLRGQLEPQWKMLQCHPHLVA
READOUT LABEL: pIC50

Sample answers from the record:
// query pIC50 of CC(C)(C)OC(=O)Nc1ccc(-c2cc(C(=O)NCCCCC(=O)NO)no2)cc1 on Polyamine deacetylase HDAC10 (Homo sapiens, UniProt Q969S8)?
// result 6.16

// query Query CC(C)(C)OC(=O)Nc1ccc(-c2cc(C(=O)NCCCCCCC(=O)NO)no2)cc1 next
// result 7.04

// query Another: Nc1cccc(-c2cc(C(=O)NCCCCCCC(=O)NO)no2)c1
// result 7.76

[1] Nc1ccc(-c2cc(C(=O)NCCCCCCC(=O)NO)no2)cc1
[2] CC(=O)Nc1ccc(-c2cc(C(=O)NCCCCCCC(=O)NO)no2)cc1
[3] CC(C)(C)OC(=O)Nc1cccc(-c2cc(C(=O)NCCCCC(=O)NO)no2)c1
[4] O=C(CCCCOCc1cc(-c2ccccc2)on1)NO
// query Could you please sort these 4 entries by pIC50 from high to low? Put the labels in the requested order and list them out.
// result 1, 2, 4, 3

* * *

SYSTEM TESTED: Histone deacetylase 2 (Homo sapiens, UniProt Q92769)
Sequence (Q92769 whole entry): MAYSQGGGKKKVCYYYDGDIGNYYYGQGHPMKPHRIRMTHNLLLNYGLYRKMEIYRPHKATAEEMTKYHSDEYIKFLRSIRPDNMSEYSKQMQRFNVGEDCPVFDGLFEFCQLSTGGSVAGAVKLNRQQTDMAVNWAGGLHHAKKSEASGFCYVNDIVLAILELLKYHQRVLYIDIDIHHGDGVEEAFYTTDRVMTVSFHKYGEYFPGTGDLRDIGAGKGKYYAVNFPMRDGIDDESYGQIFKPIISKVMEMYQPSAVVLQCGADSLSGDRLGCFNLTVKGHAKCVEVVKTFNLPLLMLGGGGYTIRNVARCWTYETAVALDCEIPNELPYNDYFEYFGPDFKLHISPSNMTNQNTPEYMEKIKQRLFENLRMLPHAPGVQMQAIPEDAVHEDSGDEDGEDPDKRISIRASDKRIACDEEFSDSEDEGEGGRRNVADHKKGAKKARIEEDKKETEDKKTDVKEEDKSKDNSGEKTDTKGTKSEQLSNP
READOUT LABEL: IC50 (µM)

// query Look up IC50 for this compound: Nc1cccc(-c2cc(C(=O)NCCCCCCC(=O)NO)no2)c1
// result 0.0567

[A] Nc1ccc(-c2cc(C(=O)NCCCCC(=O)NO)no2)cc1
[B] CC(C)(C)OC(=O)Nc1cccc(-c2cc(C(=O)NCCCCC(=O)NO)no2)c1
[C] Nc1ccc(-c2cc(C(=O)NCCCCCCC(=O)NO)no2)cc1
[D] CC(C)(C)OC(=O)Nc1ccc(-c2cc(C(=O)NCCCCCCC(=O)NO)no2)cc1
[E] Nc1cccc(-c2cc(C(=O)NCCCCC(=O)NO)no2)c1
// query In this exercise, place the 5 compounds in ascending sequence of their recorded IC50. Reply: labels, ordered per the request.
// result C, D, A, E, B
